Target: DDB2
Experiment: pooled miR-30 sensor sort-seq; sequence = guide strand; note: reference of the scale not given here
Conditions: shRNA
sensor-assay potency score (higher = more potent): recorded values
Reply with just the number.

[[record]]
input_sequence = "TTTTGAAATTAGGATCTGGGTA"
result_value = -0.102

[[record]]
input_sequence = "TAATATCCGGTAAGAATCCAGA"
result_value = -0.584

[[record]]
input_sequence = "TCGAACACGTCGATCGTCCTCA"
result_value = -0.285


// sensor-assay potency score (higher = more potent) lookup, sequence = TTTAACAAATCGCCACCTCTGC , result: -0.868

// sensor-assay potency score (higher = more potent) lookup, sequence = TAATACAATCTCGGAGGTCTTC , result: -0.478

// sensor-assay potency score (higher = more potent) lookup, sequence = TCAAATAACTGCTTGATCCCTC , result: 0.323

// sensor-assay potency score (higher = more potent) lookup, sequence = TAGAGCTGACACATCATCTTCC , result: 0.382

// sensor-assay potency score (higher = more potent) lookup, sequence = TACAATCTCGGAGGTCTTCTGG , result: -0.449

// sensor-assay potency score (higher = more potent) lookup, sequence = TTTAGTTCCAAGATAACCTTGG , result: 0.69

// sensor-assay potency score (higher = more potent) lookup, sequence = AACTTTTGAAATTAGGATCTGG , result: 0.321

// sensor-assay potency score (higher = more potent) lookup, sequence = TTTGAAATTAGGATCTGGGTAT , result: -0.00871

----------
Target: PRSS57
Assay: pooled miR-30 sensor sort-seq; sequence = guide strand
Conditions: shRNA
Record t whenever sensor-assay potency score (higher = more potent) is at -0.9 or higher; record f when lower.

[[record]]
input_sequence = "TCGGACCTTGGCCTCCATCAGT"
discrete_label = "f"

[[record]]
input_sequence = "AGCATCGATGCCAAACACCTGC"
discrete_label = "t"

[[record]]
input_sequence = "TTCACGGGCAGCATCAGGGCGG"
discrete_label = "t"

[[record]]
input_sequence = "ATCGATGCCAAACACCTGCTGG"
discrete_label = "t"

[[record]]
input_sequence = "ACACCTGCGTGTACACGTCGGG"
discrete_label = "t"

[[record]]
input_sequence = "TACACGTCGGGGGTCTTGGGGT"
discrete_label = "f"


--- query ---
## Input Given the entry TGGTAGTCGGGGTGTGTGGTGA , answer whether its sensor-assay potency score (higher = more potent) meets or surpasses -0.9.
## Output t

----------
sensor-assay potency score (higher = more potent): recorded values
Target: COX10
Assay: pooled miR-30 sensor sort-seq; sequence = guide strand
Details: shRNA
Reply with just the number.

Consider the following illustrative entries.
[[record]]
input_sequence = "TTCAGTGGTGTGTAGCAGCAGG"
result_value = -0.511

[[record]]
input_sequence = "TGATTTTGGATAGTCGAGCCAA"
result_value = -0.198


Okay, now this sequence:
// sensor-assay potency score (higher = more potent) lookup, sequence = TACACTTGCAGCTTCATCTCTT , result: 1.01

----------
Target: ACTR3B
Assay: pooled miR-30 sensor sort-seq; sequence = guide strand
Settings: shRNA
sensor-assay potency score (higher = more potent): recorded values
Reply with just the number.

[[record]]
input_sequence = "TTTAAAAACCACTTGCTCCATG"
target = "ACTR3B"
result_value = -0.231

[[record]]
input_sequence = "TTGATCGCATTGATACCCGTGT"
target = "ACTR3B"
result_value = -0.213

[[record]]
input_sequence = "TTCATCAACAACATCTGAGATG"
target = "ACTR3B"
result_value = -0.638

[[record]]
input_sequence = "TTGAGCTTGGTCAACTACCTTT"
target = "ACTR3B"
result_value = -0.378

[[record]]
input_sequence = "TACTTCATCAACAACATCTGAG"
target = "ACTR3B"
result_value = 0.487

[[record]]
input_sequence = "TATAACAAACTTCTTCTGGTTG"
target = "ACTR3B"
result_value = -0.5


// sensor-assay potency score (higher = more potent) lookup, sequence = TTACTTCATCAACAACATCTGA , result: -0.87

// sensor-assay potency score (higher = more potent) lookup, sequence = TTCTGCAAGATACTCTCTGTTT , result: -0.433

// sensor-assay potency score (higher = more potent) lookup, sequence = TCTATAACAAACTTCTTCTGGT , result: 0.599

// sensor-assay potency score (higher = more potent) lookup, sequence = TACTGTTTGATCCACTTCCGGG , result: -0.539
